Molecular target: human MC3R (human, UniProt P41968 1-323)
Sequence (P41968 whole entry): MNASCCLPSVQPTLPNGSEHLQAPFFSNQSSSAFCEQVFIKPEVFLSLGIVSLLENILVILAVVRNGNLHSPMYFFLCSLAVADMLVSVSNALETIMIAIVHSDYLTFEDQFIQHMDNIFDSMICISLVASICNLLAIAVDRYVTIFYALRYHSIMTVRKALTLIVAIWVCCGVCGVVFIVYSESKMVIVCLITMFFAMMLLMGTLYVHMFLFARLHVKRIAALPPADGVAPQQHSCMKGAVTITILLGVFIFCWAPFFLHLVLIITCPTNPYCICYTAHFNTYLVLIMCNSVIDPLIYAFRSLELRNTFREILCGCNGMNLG
Assay: cell-based or functional assay
Starred links: 1 amine or outer side, 2 acyl side, 3 side chain; linkers in the order of their positions; H or OH if unused. Positions of bridges follow the written chain, without caps; N, C: chain ends. Non-standard residues stand in square brackets, D forms with d. Primed or numbered codes have the meaning given here. dPhe(4-NHAc) = 4-acetamido-D-phenylalanine, CC(=O)Nc1ccc(C[C@@H](N[*:1])C(=O)[*:2])cc1; dTyr(4-OMe)″ = O-methyl-D-tyrosine, COc1ccc(C[C@@H](N[*:1])C(=O)[*:2])cc1; dPhe(4-Br) = N[C@H](Cc1ccc(Br)cc1)C(=O)O; d2Nal = N[C@H](Cc1ccc2ccccc2c1)C(=O)O; Nle = CCCC[C@H](N)C(=O)O
RECORDED_ENDPOINT: % max activation (%)
Give the number; % is assumed, so skip it.

Solved entries (count: 5):
Ac-RC[dA]R[dPhe(4-Br)]R[dW]C-NH2 (disulfide 2-8) [CTX-1214] ... 15
Ac-RC[dA]R[dPhe(4-Br)]RFC-NH2 (disulfide 2-8; SMILES CC(=O)N[C@@H](CCCNC(=N)N)C(=O)N[C@H]1CSSC[C@@H](C(N)=O)NC(=O)[C@H](Cc2ccccc2)NC(=O)[C@H](CCCNC(=N)N)NC(=O)[C@@H](Cc2ccc(Br)cc2)NC(=O)[C@H](CCCNC(=N)N)NC(=O)[C@@H](C)NC1=O) [CTX-1258] ... 36
Ac-RC[dA]R[dPhe(4-Br)]R[d2Nal]C-NH2 (disulfide 2-8; SMILES CC(=O)N[C@@H](CCCNC(=N)N)C(=O)N[C@H]1CSSC[C@@H](C(N)=O)NC(=O)[C@@H](Cc2ccc3ccccc3c2)NC(=O)[C@H](CCCNC(=N)N)NC(=O)[C@@H](Cc2ccc(Br)cc2)NC(=O)[C@H](CCCNC(=N)N)NC(=O)[C@@H](C)NC1=O) [CTX-1254] ... 5.5
Ac-RC[dA]R[dPhe(4-Br)]R[dW]CR[dF]-NH2 (disulfide 2-8; SMILES CC(=O)N[C@@H](CCCNC(=N)N)C(=O)N[C@H]1CSSC[C@@H](C(=O)N[C@@H](CCCNC(=N)N)C(=O)N[C@H](Cc2ccccc2)C(N)=O)NC(=O)[C@@H](Cc2c[nH]c3ccccc23)NC(=O)[C@H](CCCNC(=N)N)NC(=O)[C@@H](Cc2ccc(Br)cc2)NC(=O)[C@H](CCCNC(=N)N)NC(=O)[C@@H](C)NC1=O) [CTX-1222] ... 38
Ac-RC[dA]P[dPhe(4-Br)]RWC-NH2 (disulfide 2-8; SMILES CC(=O)N[C@@H](CCCNC(=N)N)C(=O)N[C@H]1CSSC[C@@H](C(N)=O)NC(=O)[C@H](Cc2c[nH]c3ccccc23)NC(=O)[C@H](CCCNC(=N)N)NC(=O)[C@@H](Cc2ccc(Br)cc2)NC(=O)[C@@H]2CCCN2C(=O)[C@@H](C)NC1=O) [CTX-2204] ... 0.2

query: Output % max activation of Ac-RC[dA]R[dPhe(4-Br)]R[dF]C-NH2 (disulfide 2-8; SMILES CC(=O)N[C@@H](CCCNC(=N)N)C(=O)N[C@H]1CSSC[C@@H](C(N)=O)NC(=O)[C@@H](Cc2ccccc2)NC(=O)[C@H](CCCNC(=N)N)NC(=O)[C@@H](Cc2ccc(Br)cc2)NC(=O)[C@H](CCCNC(=N)N)NC(=O)[C@@H](C)NC1=O) [CTX-1255]
result: 28

query: Output % max activation of Ac-R[Nle]CR[dTyr(4-OMe)″]R[dW]C-NH2 (disulfide 3-8; SMILES CCCC[C@H](NC(=O)[C@H](CCCNC(=N)N)NC(C)=O)C(=O)N[C@H]1CSSC[C@@H](C(N)=O)NC(=O)[C@@H](Cc2c[nH]c3ccccc23)NC(=O)[C@H](CCCNC(=N)N)NC(=O)[C@@H](Cc2ccc(OC)cc2)NC(=O)[C@H](CCCNC(=N)N)NC1=O) [CTX-1615]
result: 55

query: Output % max activation of Ac-RC[dA][dR][dPhe(4-Br)]R[dW]C-NH2 (disulfide 2-8) [CTX-1250]
result: 10

query: Output % max activation of Ac-RC[dA]R[dPhe(4-NHAc)]R[dW]C-NH2 (disulfide 2-8) [CTX-1245]
result: 6.3

query: Output % max activation of Ac-RC[dA]R[dY]R[dW]C-NH2 (disulfide 2-8; SMILES CC(=O)N[C@@H](CCCNC(=N)N)C(=O)N[C@H]1CSSC[C@@H](C(N)=O)NC(=O)[C@@H](Cc2c[nH]c3ccccc23)NC(=O)[C@H](CCCNC(=N)N)NC(=O)[C@@H](Cc2ccc(O)cc2)NC(=O)[C@H](CCCNC(=N)N)NC(=O)[C@@H](C)NC1=O) [CTX-1237]
result: 19
